Molecular target: human ACC2 (Homo sapiens)
Sequence (O00763 whole entry): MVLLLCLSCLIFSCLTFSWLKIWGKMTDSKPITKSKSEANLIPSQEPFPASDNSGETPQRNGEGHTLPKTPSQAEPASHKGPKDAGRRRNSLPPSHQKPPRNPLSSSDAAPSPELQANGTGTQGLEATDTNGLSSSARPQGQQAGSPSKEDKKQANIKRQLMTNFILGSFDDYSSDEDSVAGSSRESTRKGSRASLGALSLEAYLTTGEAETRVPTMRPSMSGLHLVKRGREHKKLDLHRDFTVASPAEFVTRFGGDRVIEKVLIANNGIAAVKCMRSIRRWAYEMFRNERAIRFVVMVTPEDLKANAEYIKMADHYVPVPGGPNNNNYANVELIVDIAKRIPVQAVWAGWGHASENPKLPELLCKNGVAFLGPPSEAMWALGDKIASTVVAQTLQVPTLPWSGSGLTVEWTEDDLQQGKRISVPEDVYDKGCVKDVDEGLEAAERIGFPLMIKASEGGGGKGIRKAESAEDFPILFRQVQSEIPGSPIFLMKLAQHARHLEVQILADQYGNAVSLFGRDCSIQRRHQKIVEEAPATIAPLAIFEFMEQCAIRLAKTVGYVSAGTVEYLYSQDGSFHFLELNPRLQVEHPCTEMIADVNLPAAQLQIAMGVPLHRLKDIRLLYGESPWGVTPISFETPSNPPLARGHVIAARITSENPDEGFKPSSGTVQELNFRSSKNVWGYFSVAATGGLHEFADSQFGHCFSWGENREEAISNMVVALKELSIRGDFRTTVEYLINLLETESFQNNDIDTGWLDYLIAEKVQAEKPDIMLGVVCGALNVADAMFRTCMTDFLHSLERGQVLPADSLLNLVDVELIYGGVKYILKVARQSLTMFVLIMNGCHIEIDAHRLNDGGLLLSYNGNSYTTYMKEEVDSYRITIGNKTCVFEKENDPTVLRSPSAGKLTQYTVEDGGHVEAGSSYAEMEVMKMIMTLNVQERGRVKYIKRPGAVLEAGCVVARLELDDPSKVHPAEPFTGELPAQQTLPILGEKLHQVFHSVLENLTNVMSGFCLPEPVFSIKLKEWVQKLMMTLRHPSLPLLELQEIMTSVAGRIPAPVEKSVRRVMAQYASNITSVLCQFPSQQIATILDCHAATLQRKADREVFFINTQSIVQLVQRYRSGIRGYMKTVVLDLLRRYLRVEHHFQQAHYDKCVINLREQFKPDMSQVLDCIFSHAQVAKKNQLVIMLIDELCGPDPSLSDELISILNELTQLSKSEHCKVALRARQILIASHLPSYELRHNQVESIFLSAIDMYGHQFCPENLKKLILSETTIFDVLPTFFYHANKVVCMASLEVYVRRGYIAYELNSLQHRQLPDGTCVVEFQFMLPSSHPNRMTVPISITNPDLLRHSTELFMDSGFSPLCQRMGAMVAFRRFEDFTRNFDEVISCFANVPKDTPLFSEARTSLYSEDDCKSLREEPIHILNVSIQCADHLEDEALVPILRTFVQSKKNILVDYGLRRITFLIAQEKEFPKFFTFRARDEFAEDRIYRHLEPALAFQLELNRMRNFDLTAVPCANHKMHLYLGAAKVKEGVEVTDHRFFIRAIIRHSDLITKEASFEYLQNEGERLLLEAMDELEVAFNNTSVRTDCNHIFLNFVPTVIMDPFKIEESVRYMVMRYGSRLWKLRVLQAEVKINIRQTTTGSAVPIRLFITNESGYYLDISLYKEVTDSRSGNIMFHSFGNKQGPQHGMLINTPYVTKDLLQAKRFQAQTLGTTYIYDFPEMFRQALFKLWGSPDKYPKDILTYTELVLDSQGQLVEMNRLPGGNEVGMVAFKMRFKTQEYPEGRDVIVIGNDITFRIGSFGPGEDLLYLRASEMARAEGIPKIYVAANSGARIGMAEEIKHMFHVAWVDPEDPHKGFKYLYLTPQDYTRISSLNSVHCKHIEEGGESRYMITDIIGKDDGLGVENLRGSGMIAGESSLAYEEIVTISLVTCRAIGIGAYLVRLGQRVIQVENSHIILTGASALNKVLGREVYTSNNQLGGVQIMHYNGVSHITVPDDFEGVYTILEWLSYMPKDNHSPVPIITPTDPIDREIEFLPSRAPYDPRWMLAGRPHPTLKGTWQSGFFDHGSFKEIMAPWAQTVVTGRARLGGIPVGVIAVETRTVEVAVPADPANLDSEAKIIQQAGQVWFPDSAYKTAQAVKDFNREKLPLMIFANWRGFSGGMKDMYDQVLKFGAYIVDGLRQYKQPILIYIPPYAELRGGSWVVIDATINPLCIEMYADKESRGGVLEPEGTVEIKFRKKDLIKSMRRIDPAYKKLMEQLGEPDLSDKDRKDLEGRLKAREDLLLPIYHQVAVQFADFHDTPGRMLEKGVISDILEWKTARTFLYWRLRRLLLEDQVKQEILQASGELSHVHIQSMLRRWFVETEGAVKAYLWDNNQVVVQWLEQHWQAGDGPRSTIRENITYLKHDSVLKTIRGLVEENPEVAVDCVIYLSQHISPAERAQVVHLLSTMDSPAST
Assay: Acetyl CoA carboxylase (ACC) activity inhibition test, human ACC2
Assay type: biochemical
Settings: 1 μmol/liter test compound; read-out: Inhibition (%) by 1 μmol/liter Chemical, human ACC2
Readout type: inhibition at 1 µM (%)

# inhibition at 1 µM of CCn1ccc2c(OC)cc(C(=O)N3CCC4(CC3)CC(=O)c3cc(-c5nnn[nH]5)ccc3O4)cc21 = 99

# inhibition at 1 µM of COc1cc(C(=O)N2CCC3(CC2)CC(=O)c2cc(-c4nnc(C(N)=O)[nH]4)ccc2O3)cc2c1ccn2C1CC1 = 99

# inhibition at 1 µM of COc1cc(C(=O)N2CCC3(CC2)CC(=O)c2cc(-c4noc(=O)[nH]4)ccc2O3)cc2c1ccn2C1CC1 = 97

# inhibition at 1 µM of CCn1ncc2c(OC)cc(C(=O)N3CCC4(CC3)CC(=O)c3cc(-c5nnn[nH]5)ccc3O4)cc21 = 96
